Tested on: Echinochloa crus-galli (ECHCG)
Test: Post-emergence Test, Echinochloa crus-galli (ECHCG)
Assay type: in vivo
Parameters: key: 5=81-100%, 4=61-80%, 3=41-60%, 2=21-40%, 1=0-20% damage
Conditions: 1000 g/ha, evaluated after 13 days
Procedure: Seeds of a variety of test species are sown in standard soil in pots (Setaria faberi (SETFA), Echinochloa crus-galli (ECHCG), Zea mays (ZEAMX), Ipomoea hederacea (IPOHE), Amaranthus palmeri (AMAPA), Amaranthus retoflexus (AMARE)). […] After 13 days the test is evaluated for the percentage damage caused to the plant. […]
Property Measured: percentage damage caused to the plant, ECHCG (five-point scale)

Echinochloa crus-galli (ECHCG) / percentage damage caused to the plant, ECHCG (five-point scale) / CCn1c(Cn2ccc(C(F)(F)F)n2)cc(=O)c(C(=O)OC)c1-c1ccc(Cl)cc1 : value?
3 (3=41-60%)

Echinochloa crus-galli (ECHCG) / percentage damage caused to the plant, ECHCG (five-point scale) / CCOC(=O)c1c(-c2cccc(Cl)c2)n(CC)c(Cn2ccc(C(F)(F)F)n2)cc1=O : value?
1 (1=0-20%)

Echinochloa crus-galli (ECHCG) / percentage damage caused to the plant, ECHCG (five-point scale) / CCn1c(Cn2nc(Cl)cc2C(F)(F)F)cc(=O)c(C(=O)O)c1-c1ccc(Cl)c(Cl)c1 : value?
4 (4=61-80%)

---

test system: Ipomoea hederacea (IPOHE); assay: Post-emergence Test, Ipomoea hederacea (IPOHE); format: in vivo; design: key: 5=81-100%, 4=61-80%, 3=41-60%, 2=21-40%, 1=0-20% damage; conditions: 1000 g/ha, evaluated after 13 days
Property Measured: percentage damage caused to the plant, IPOHE (five-point scale)

If you can, please state the reported percentage damage caused to the plant, IPOHE (five-point scale) value of CCn1c(Cn2ncc([N+](=O)[O-])c2C)cc(=O)c(C(=O)O)c1-c1ccc(Cl)c(Cl)c1 [Compound 69] .
1 (1=0-20%)

If you can, please state the reported percentage damage caused to the plant, IPOHE (five-point scale) value of CCn1c(Cn2cc3ccccc3n2)cc(=O)c(C(=O)O)c1-c1ccc(Cl)c(Cl)c1 [Compound 106] .
3 (3=41-60%)

If you can, please state the reported percentage damage caused to the plant, IPOHE (five-point scale) value of CCn1c(Cn2cnc(C(F)(F)F)c2)cc(=O)c(C(=O)O)c1-c1ccc(Cl)c(Cl)c1 [Compound 10] .
1 (1=0-20%)

If you can, please state the reported percentage damage caused to the plant, IPOHE (five-point scale) value of CCn1c(Cn2ccc(C(F)(F)F)n2)cc(=O)c(C(=O)O)c1-c1ccc(Cl)c(Cl)c1 [Compound 2] .
4 (4=61-80%)

---

system: Zea mays (ZEAMX); test: Post-emergence Test, Zea mays (ZEAMX); type: in vivo; set-up: key: 5=81-100%, 4=61-80%, 3=41-60%, 2=21-40%, 1=0-20% damage; conditions: 250 g/Ha, evaluated after 13 days
Give percentage damage caused to the plant, ZEAMX (five-point scale) for every item shown.

If you can, please state the reported percentage damage caused to the plant, ZEAMX (five-point scale) value of CCn1c(Cn2nc(C)cc2C)cc(=O)c(C(=O)O)c1-c1ccc(Cl)c(Cl)c1 .
0

If you can, please state the reported percentage damage caused to the plant, ZEAMX (five-point scale) value of CCOC(=O)c1nn(Cc2cc(=O)c(C(=O)O)c(-c3ccc(Cl)c(Cl)c3)n2CC)cc1C .
0

If you can, please state the reported percentage damage caused to the plant, ZEAMX (five-point scale) value of CCn1c(Cn2ncc3cc(F)ccc32)cc(=O)c(C(=O)O)c1-c1ccc(Cl)c(Cl)c1 .
1 (1=0-20%)

If you can, please state the reported percentage damage caused to the plant, ZEAMX (five-point scale) value of CCOC(=O)c1c(-c2ccc(Cl)c(Cl)c2)n(CC)c(Cn2ccnc2)c(Br)c1=O .
1 (1=0-20%)

If you can, please state the reported percentage damage caused to the plant, ZEAMX (five-point scale) value of CCn1c(Cn2ccc(C(F)(F)F)n2)cc(=O)c(C(=O)O)c1-c1ccc(N)c(Cl)c1 .
0

If you can, please state the reported percentage damage caused to the plant, ZEAMX (five-point scale) value of CCn1c(Cn2ccc(C(F)(F)F)n2)cc(=O)c(C(=O)O)c1-c1ccc(F)c(F)c1 .
1 (1=0-20%)

If you can, please state the reported percentage damage caused to the plant, ZEAMX (five-point scale) value of CCn1c(Cn2cc(C(C)=O)c(C)n2)cc(=O)c(C(=O)O)c1-c1ccc(Cl)c(Cl)c1 .
0

If you can, please state the reported percentage damage caused to the plant, ZEAMX (five-point scale) value of CCOC(=O)c1c(-c2ccc(Cl)c(Cl)c2)n(CC)c(Cn2cnc(Cl)c2Cl)cc1=O .
1 (1=0-20%)

If you can, please state the reported percentage damage caused to the plant, ZEAMX (five-point scale) value of CCn1c(Cn2nc(C(F)F)cc2C)cc(=O)c(C(=O)O)c1-c1ccc(Cl)c(Cl)c1 .
0

If you can, please state the reported percentage damage caused to the plant, ZEAMX (five-point scale) value of CCn1c(Cn2cc(C)c(C(F)(F)F)n2)cc(=O)c(C(=O)O)c1-c1ccc(Cl)c(Cl)c1 .
0

If you can, please state the reported percentage damage caused to the plant, ZEAMX (five-point scale) value of CCn1c(Cn2ncc3cc(Cl)ccc32)cc(=O)c(C(=O)O)c1-c1ccc(Cl)c(Cl)c1 .
1 (1=0-20%)

If you can, please state the reported percentage damage caused to the plant, ZEAMX (five-point scale) value of CCn1c(Cn2nc(C(F)(F)F)cc2C(F)(F)F)cc(=O)c(C(=O)O)c1-c1ccc(Cl)c(Cl)c1 .
1 (1=0-20%)

If you can, please state the reported percentage damage caused to the plant, ZEAMX (five-point scale) value of CCn1c(Cn2cc(Cl)cn2)cc(=O)c(C(=O)O)c1-c1ccc(Cl)c(Cl)c1 .
1 (1=0-20%)

If you can, please state the reported percentage damage caused to the plant, ZEAMX (five-point scale) value of CCn1c(Cn2ccc(C(F)(F)F)n2)cc(=O)c(C(=O)O)c1-c1ccc(Cl)c(C#N)c1 .
0

If you can, please state the reported percentage damage caused to the plant, ZEAMX (five-point scale) value of CCn1c(Cn2ccc(CC#N)n2)cc(=O)c(C(=O)O)c1-c1ccc(Cl)c(Cl)c1 .
0

If you can, please state the reported percentage damage caused to the plant, ZEAMX (five-point scale) value of CCn1c(Cn2ccc(I)n2)cc(=O)c(C(=O)O)c1-c1ccc(Cl)c(Cl)c1 .
1 (1=0-20%)

---

tested on: Zea mays (ZEAMX); assay: Post-emergence Test, Zea mays (ZEAMX); assay type: in vivo; design: key: 5=81-100%, 4=61-80%, 3=41-60%, 2=21-40%, 1=0-20% damage; conditions: 250 g/Ha, evaluated after 13 days
Give percentage damage caused to the plant, ZEAMX (five-point scale) for every item shown.
A bare number is all that is needed in reply.

If you can, please state the reported percentage damage caused to the plant, ZEAMX (five-point scale) value of CCn1c(Cn2nc3ccccc3n2)cc(=O)c(C(=O)O)c1-c1ccc(Cl)c(Cl)c1 .
0

If you can, please state the reported percentage damage caused to the plant, ZEAMX (five-point scale) value of CCn1c(Cn2ncc(Cl)c2C)cc(=O)c(C(=O)O)c1-c1ccc(Cl)c(Cl)c1 .
0

If you can, please state the reported percentage damage caused to the plant, ZEAMX (five-point scale) value of CCn1c(Cn2ccc(C(C)=O)n2)cc(=O)c(C(=O)O)c1-c1ccc(Cl)c(Cl)c1 .
0

---

tested on: Zea mays (ZEAMX); assay: Pre-emergence Test, Zea mays (ZEAMX); format: in vivo; conditions: 1000 g/ha, evaluated after 13 days
Property Measured: Pre-emergence Test ZEAMX, percentage damage caused to the plant (five-point scale)

If you can, please state the reported Pre-emergence Test ZEAMX, percentage damage caused to the plant (five-point scale) value of CCn1c(Cn2nc(Cl)cc2C(F)(F)F)cc(=O)c(C(=O)O)c1-c1ccc(Cl)c(Cl)c1 .
5 (5=81-100%)

If you can, please state the reported Pre-emergence Test ZEAMX, percentage damage caused to the plant (five-point scale) value of CCOC(=O)c1c(-c2ccc(Cl)c(Cl)c2)n(CC)c(Cn2cnc(C(F)(F)F)n2)cc1=O .
0

If you can, please state the reported Pre-emergence Test ZEAMX, percentage damage caused to the plant (five-point scale) value of CCn1c(Cn2cc(Cl)c(C)n2)cc(=O)c(C(=O)O)c1-c1ccc(Cl)c(Cl)c1 .
1 (1=0-20%)

If you can, please state the reported Pre-emergence Test ZEAMX, percentage damage caused to the plant (five-point scale) value of CCCOc1ccn(Cc2cc(=O)c(C(=O)O)c(-c3ccc(Cl)c(Cl)c3)n2CC)n1 .
3 (3=41-60%)

If you can, please state the reported Pre-emergence Test ZEAMX, percentage damage caused to the plant (five-point scale) value of CCn1c(Cn2ccc(OC)n2)cc(=O)c(C(=O)O)c1-c1ccc(Cl)c(Cl)c1 .
5 (5=81-100%)

If you can, please state the reported Pre-emergence Test ZEAMX, percentage damage caused to the plant (five-point scale) value of CCn1c(Cn2ccc(C(F)(F)F)n2)cc(=O)c(C(=O)O)c1-c1ccc(Cl)c(Cl)c1 .
4 (4=61-80%)

If you can, please state the reported Pre-emergence Test ZEAMX, percentage damage caused to the plant (five-point scale) value of CCOC(=O)c1c(-c2ccc(Cl)c(Cl)c2)n(CC)c(Cn2ccc(Cl)n2)c(Br)c1=O .
0

If you can, please state the reported Pre-emergence Test ZEAMX, percentage damage caused to the plant (five-point scale) value of CCn1c(Cn2ccc(C(F)(F)F)n2)cc(=O)c(C(=O)O)c1-c1cccc(Cl)c1 .
1 (1=0-20%)

If you can, please state the reported Pre-emergence Test ZEAMX, percentage damage caused to the plant (five-point scale) value of CCn1c(Cn2nc(C(F)(F)F)cc2OCCOC)cc(=O)c(C(=O)O)c1-c1ccc(Cl)c(Cl)c1 .
0

If you can, please state the reported Pre-emergence Test ZEAMX, percentage damage caused to the plant (five-point scale) value of CCn1c(Cn2ccc(C(F)(F)F)n2)cc(=O)c(C(=O)O)c1-c1ccc(Cl)c(F)c1 .
5 (5=81-100%)

If you can, please state the reported Pre-emergence Test ZEAMX, percentage damage caused to the plant (five-point scale) value of CCn1c(Cn2ccc(OCC(F)F)n2)cc(=O)c(C(=O)O)c1-c1ccc(Cl)c(Cl)c1 .
4 (4=61-80%)

If you can, please state the reported Pre-emergence Test ZEAMX, percentage damage caused to the plant (five-point scale) value of CCn1c(Cn2ccc(OC(C)C)n2)cc(=O)c(C(=O)O)c1-c1ccc(Cl)c(Cl)c1 .
5 (5=81-100%)

If you can, please state the reported Pre-emergence Test ZEAMX, percentage damage caused to the plant (five-point scale) value of CCn1c(Cn2ccc(-c3cccs3)n2)cc(=O)c(C(=O)O)c1-c1ccc(Cl)c(Cl)c1 .
1 (1=0-20%)

If you can, please state the reported Pre-emergence Test ZEAMX, percentage damage caused to the plant (five-point scale) value of CCn1c(Cn2nccc2Cl)cc(=O)c(C(=O)O)c1-c1ccc(Cl)c(Cl)c1 .
0

If you can, please state the reported Pre-emergence Test ZEAMX, percentage damage caused to the plant (five-point scale) value of CCn1c(Cn2ccc(Cl)n2)cc(=O)c(C(=O)O)c1-c1ccc(C#N)c(Cl)c1 .
0

If you can, please state the reported Pre-emergence Test ZEAMX, percentage damage caused to the plant (five-point scale) value of CCn1c(Cn2cc3c(n2)CCCC3)cc(=O)c(C(=O)O)c1-c1ccc(Cl)c(Cl)c1 .
1 (1=0-20%)
